Readout Label: melting point

# input Assign melting point to the following record: Cn1nnnc1/C(=N\OCc1cccc(NC(=O)C(C)(C)O)n1)c1ccccc1 [b-7]
# output 144 to 146 °C

# input For COC(C)(C)C(=O)Nc1cccc(CO/N=C(/c2ccccc2)c2nnnn2C)n1 [b-6] , write its melting point.
# output 104 to 105 °C

# input Using the record for COCC(C)(C)C(=O)Nc1cccc(CO/N=C(/c2ccccc2)c2nnnn2C)n1 [b-8] , state its measured melting point.
# output 60 to 61 °C
